The compounds listed here are annotated with their Ki.
# assayedSystem: Sodium channel protein type 2 subunit alpha (Homo sapiens)
# Sequence (Q99250 whole entry): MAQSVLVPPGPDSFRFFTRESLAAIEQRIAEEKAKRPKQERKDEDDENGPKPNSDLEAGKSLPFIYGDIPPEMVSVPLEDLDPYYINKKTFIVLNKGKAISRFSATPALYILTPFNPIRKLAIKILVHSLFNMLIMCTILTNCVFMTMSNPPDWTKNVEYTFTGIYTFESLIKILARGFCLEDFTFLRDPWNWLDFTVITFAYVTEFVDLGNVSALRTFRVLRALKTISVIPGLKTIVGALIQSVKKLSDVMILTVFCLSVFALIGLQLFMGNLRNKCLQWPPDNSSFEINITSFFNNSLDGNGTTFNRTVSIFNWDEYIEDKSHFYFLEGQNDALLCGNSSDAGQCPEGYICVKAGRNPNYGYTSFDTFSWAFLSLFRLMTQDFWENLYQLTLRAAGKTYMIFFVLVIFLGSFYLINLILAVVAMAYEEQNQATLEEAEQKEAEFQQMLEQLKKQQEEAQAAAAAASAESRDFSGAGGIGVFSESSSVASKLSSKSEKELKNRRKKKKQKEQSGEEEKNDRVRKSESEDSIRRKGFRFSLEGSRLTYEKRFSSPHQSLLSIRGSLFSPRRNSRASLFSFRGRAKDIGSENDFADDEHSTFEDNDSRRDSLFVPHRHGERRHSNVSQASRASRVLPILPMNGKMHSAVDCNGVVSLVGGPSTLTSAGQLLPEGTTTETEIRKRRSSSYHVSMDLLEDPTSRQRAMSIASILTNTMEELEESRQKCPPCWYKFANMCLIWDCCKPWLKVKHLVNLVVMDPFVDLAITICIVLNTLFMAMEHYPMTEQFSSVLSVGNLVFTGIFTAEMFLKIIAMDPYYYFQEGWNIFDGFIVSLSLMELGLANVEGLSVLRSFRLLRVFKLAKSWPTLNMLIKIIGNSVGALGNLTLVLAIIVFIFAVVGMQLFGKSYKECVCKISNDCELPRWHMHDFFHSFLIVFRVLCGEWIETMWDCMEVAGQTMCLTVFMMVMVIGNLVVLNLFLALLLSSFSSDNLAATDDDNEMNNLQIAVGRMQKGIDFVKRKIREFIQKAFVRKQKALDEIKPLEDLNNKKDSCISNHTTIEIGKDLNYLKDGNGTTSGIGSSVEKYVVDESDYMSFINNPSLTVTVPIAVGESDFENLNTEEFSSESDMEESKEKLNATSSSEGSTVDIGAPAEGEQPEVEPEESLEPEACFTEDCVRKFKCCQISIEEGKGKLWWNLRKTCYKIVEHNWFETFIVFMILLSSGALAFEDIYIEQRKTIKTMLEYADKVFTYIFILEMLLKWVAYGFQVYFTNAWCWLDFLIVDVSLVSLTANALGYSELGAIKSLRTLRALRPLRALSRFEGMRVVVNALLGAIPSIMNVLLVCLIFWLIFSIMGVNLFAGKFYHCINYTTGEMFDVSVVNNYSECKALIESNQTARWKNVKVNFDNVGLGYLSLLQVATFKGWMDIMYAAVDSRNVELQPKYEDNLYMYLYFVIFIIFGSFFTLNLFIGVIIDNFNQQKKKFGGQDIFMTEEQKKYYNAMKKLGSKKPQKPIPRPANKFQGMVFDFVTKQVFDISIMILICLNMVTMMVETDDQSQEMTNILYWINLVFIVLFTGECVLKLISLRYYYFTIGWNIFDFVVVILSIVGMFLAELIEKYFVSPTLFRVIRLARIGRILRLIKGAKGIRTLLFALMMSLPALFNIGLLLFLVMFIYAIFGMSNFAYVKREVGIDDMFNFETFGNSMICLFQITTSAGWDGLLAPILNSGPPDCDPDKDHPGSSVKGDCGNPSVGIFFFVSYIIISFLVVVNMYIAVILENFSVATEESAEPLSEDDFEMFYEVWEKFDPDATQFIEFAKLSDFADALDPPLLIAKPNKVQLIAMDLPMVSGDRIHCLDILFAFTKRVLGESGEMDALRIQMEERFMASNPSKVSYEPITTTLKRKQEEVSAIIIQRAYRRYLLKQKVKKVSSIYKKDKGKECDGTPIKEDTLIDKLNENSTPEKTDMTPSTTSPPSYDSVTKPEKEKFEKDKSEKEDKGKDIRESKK
# assaySummary: Binding affinity to Nav 1.2 (unknown origin)
Kindly report the value followed by its unit.

The examples below pair each entry with its known result.
[[record]]
compound = "CC(=O)Nc1ccc(N2C(=O)c3ccccc3C2=O)cc1"
endpointresult = "18.3 µM"

[[record]]
compound = "O=C(O)c1ccc(N2C(=O)c3ccccc3C2=O)cc1"
endpointresult = "50.4 µM"

[[record]]
compound = "O=C1c2ccccc2C(=O)N1c1ccccc1[N+](=O)[O-]"
endpointresult = "134 µM"

[[record]]
compound = "NS(=O)(=O)c1nnc(N2C(=O)c3ccccc3C2=O)s1"
endpointresult = "61.1 µM"

[[record]]
compound = "NS(=O)(=O)c1ccc(N2C(=O)c3ccccc3C2=O)cc1"
endpointresult = "16 µM"

[[record]]
compound = "O=C1c2ccccc2C(=O)N1c1cccc([N+](=O)[O-])c1"
endpointresult = "21.8 µM"

[[record]]
compound = "O=C(O)c1ccccc1N1C(=O)c2ccccc2C1=O [N-PHTHALOYLANTHRANILIC ACID]"
endpointresult = "338 µM"

[[record]]
compound = "COc1ccc(N2C(=O)c3ccccc3C2=O)c([N+](=O)[O-])c1"
endpointresult = "108 µM"


Q: I would be grateful if you could share the reported Ki for `COc1ccc(N2C(=O)c3ccccc3C2=O)c(N)c1` .
A: 20.3 µM

Q: Entry `O=C1c2ccccc2C(=O)N1c1ccc([N+](=O)[O-])cc1` has what Ki?
A: 65.6 µM

Q: Would you kindly share the measured Ki for `O=C(O)c1ccc(N2C(=O)c3ccccc3C2=O)cc1O` ?
A: 78.4 µM
